biological target: HLA-A*0201 (human); test: competition with 125I-labelled standard peptide on purified HLA, gel filtration
Classification field: enter Met for binding affinity ratio (IC50 of standard peptide / IC50 of test peptide) values not below 0.001, Not met for values below it.

                                     binder    class
0  YMLDLQPET (modifications not checked) [HPV16 E7 11 …]      Met
1  TLEDLLMGTL (modifications not checked) [HPV16 E7 78 …]  Not met
2   TLRLCVQSTHV (modifications not checked)  Not met

Q: // inclusive: binding affinity ratio (IC50 of standard peptide / IC50 of test peptide) at least 0.001? input: VTFCCKCDST (modifications not checked) [HPV16 E7 55 …]
A: Not met

Q: // inclusive: binding affinity ratio (IC50 of standard peptide / IC50 of test peptide) at least 0.001? input: TLRLCVQST (modifications not checked)
A: Met

Q: // inclusive: binding affinity ratio (IC50 of standard peptide / IC50 of test peptide) at least 0.001? input: STLRLCVQST (modifications not checked) [HPV16 E7 63 …]
A: Met
